- Method description: Single dose oral pharmacokinetics study in female rats
- Format: in vivo, female Sprague Dawley rats
- Test parameters: Sprague-Dawley, rat, plasma; Oral, 5.00 mg/kg, female S.D. rats
Reported metric: half-life
Include the unit right after the number.

The compound CC1=C(c2ccc(O)cc2)C(c2ccc(OCCN3CC[C@@H](C)C3)cc2)Oc2cc(O)ccc21 (stereo partly shown) [OP-1038] showed half-life equal to 28.5 h

----------
- Method description: Single dose oral pharmacokinetics study in female rats
- Type: in vivo, female Sprague Dawley rats
- Test parameters: Sprague-Dawley, rat, plasma; Oral 5 mg/kg compared to intravenous 3 mg/kg, female S.D. rats; read-out: F % (Oral bioavailability)
Reported metric: bioavailability (%)
Answers are plain numbers, in %.

The molecule CC1=C(c2ccc(O)cc2)C(c2ccc(OCCN3CC[C@@H](C)C3)cc2)Oc2cc(O)ccc21 (stereo partly shown) showed bioavailability equal to 18.9
